# System: Escherichia coli
# Assay type: cell-based
Numbered stars: 1 amine (or outer) side, 2 acyl side, 3 side chain; on linkers, the order of the positions; unused ones are H or OH. Bridge positions count the residues as written; N and C are the ends. Square brackets hold non-standard residues; d marks the D form. Peptide text beside a SMILES is read from it. * marks the point of attachment. ξ: configuration not given here. X11 = O=C([C@@H](Cc1ccc(-c2ccncc2)cc1)N[*:1])[*:2]; dPhe(4-Br) = N[C@H](Cc1ccc(Br)cc1)C(=O)O; Octanoyl(6-Me) = CCC(C)CCCCC(=O)*; dCha = N[C@H](CC1CCCCC1)C(=O)O; Thr(3ξ) = CC(O)[C@H](N)C(=O)O; Dab = NCC[C@H](N)C(=O)O; X2 = CC(C)CC(CN)C(=O)*
observable: MIC E. coli 060 (µg/mL)
Quick reminder: number only, in µg/mL, skip the unit.

Please review the following examples before continuing.
[
  {
    "molecule": "CC(C)CC(CN)C(=O)N[C@H](C(=O)N[C@@H](CN)C(=O)N[C@H]1CCNC(=O)[C@H]([C@@H](C)O)NC(=O)[C@H](CCN)NC(=O)[C@H](CCN)NC(=O)[C@H](CC(C)C)NC(=O)[C@@H](Cc2ccc(Br)cc2)NC(=O)[C@H](CCN)NC1=O)C(C)O (single isomer, unassigned; isomer 2) [Example 14]",
    "MIC E. coli 060 (µg/mL)": 8
  },
  {
    "molecule": "CCC(C)CCCCC(=O)N[C@@H](CCN)C(=O)N[C@H](C(=O)N[C@@H](CCN)C(=O)N[C@H]1CCNC(=O)[C@H]([C@@H](C)O)NC(=O)[C@H](CCN)NC(=O)[C@H](CCN)NC(=O)[C@H](CC(C)C)NC(=O)[C@@H](Cc2ccc(-c3ccncc3)cc2)NC(=O)[C@H](CCN)NC1=O)C(C)O (some centres unmarked) [Example 1] ({Octanoyl(6-Me)}-[Dab][Thr(3ξ)][Dab][Dab][Dab][X11]L[Dab][Dab]T; lactam 4-C)",
    "MIC E. coli 060 (µg/mL)": 8
  },
  {
    "molecule": "CCCCCCCCC1CNCC1C(=O)N[C@H](C(=O)N[C@@H](CCN)C(=O)N[C@H]1CCNC(=O)[C@H]([C@@H](C)O)NC(=O)[C@H](CCN)NC(=O)[C@H](CCN)NC(=O)[C@H](CC(C)C)NC(=O)[C@@H](Cc2ccc(-c3ccccc3)cc2)NC(=O)[C@H](CCN)NC1=O)C(C)O (single isomer, unassigned; isomer 1) [Example 7]",
    "MIC E. coli 060 (µg/mL)": 4
  },
  {
    "molecule": "CC(C)CC1CNCC(C(=O)N[C@H](C(=O)N[C@@H](CN)C(=O)N[C@H]2CCNC(=O)[C@H]([C@@H](C)O)NC(=O)[C@H](CCN)NC(=O)[C@H](CCN)NC(=O)[C@H](CC(C)C)NC(=O)[C@@H](Cc3ccc(-c4ccccc4)cc3)NC(=O)[C@H](CCN)NC2=O)C(C)O)C1 (single isomer, unassigned; isomer 2) [Example 4]",
    "MIC E. coli 060 (µg/mL)": 0.5
  },
  {
    "molecule": "CCCCCC/C=C/c1ccc(C[C@H]2NC(=O)[C@H](CCN)NC(=O)[C@@H](NC(=O)[C@H](CN)NC(=O)[C@@H](NC(=O)C3CNCC(CC(C)C)C3)C(C)O)CCNC(=O)[C@H]([C@@H](C)O)NC(=O)[C@H](CCN)NC(=O)[C@H](CCN)NC(=O)[C@H](CC(C)C)NC2=O)cc1 (single isomer, unassigned; isomer 1) [Example 17]",
    "MIC E. coli 060 (µg/mL)": 2
  },
  {
    "molecule": "CCC(C)CCCCC(=O)N[C@@H](CCN)C(=O)N[C@H](C(=O)N[C@@H](CCN)C(=O)N[C@H]1CCNC(=O)[C@H]([C@@H](C)O)NC(=O)[C@H](CCN)NC(=O)[C@H](CCN)NC(=O)[C@H](CC(C)C)NC(=O)[C@@H](Cc2ccc(Br)cc2)NC(=O)[C@H](CCN)NC1=O)C(C)O (stereo partly drawn) [Example 2, Polymyxin B[D-(4-bromoPhe)]-6]] ({Octanoyl(6-Me)}-[Dab][Thr(3ξ)][Dab][Dab][Dab][dPhe(4-Br)]L[Dab][Dab]T; lactam 4-C)",
    "MIC E. coli 060 (µg/mL)": 2
  },
  {
    "molecule": "CC(C)CC(CN)C(=O)N[C@H](C(=O)N[C@@H](CN)C(=O)N[C@H]1CCNC(=O)[C@H]([C@@H](C)O)NC(=O)[C@H](CCN)NC(=O)[C@H](CCN)NC(=O)[C@H](CC(C)C)NC(=O)[C@@H](Cc2ccc(-c3ccccc3)cc2)NC(=O)[C@H](CCN)NC1=O)C(C)O (single isomer, unassigned; isomer 2) [Example 16]",
    "MIC E. coli 060 (µg/mL)": 5
  }
]

Proceed to the following item.
I'd like to know its MIC E. coli 060. The molecule in question is CC(C)CC(CN)C(=O)N[C@H](C(=O)N[C@@H](CCN)C(=O)N[C@H]1CCNC(=O)[C@H]([C@@H](C)O)NC(=O)[C@H](CCN)NC(=O)[C@H](CCN)NC(=O)[C@H](CC(C)C)NC(=O)[C@@H](CC2CCCCC2)NC(=O)[C@H](CCN)NC1=O)C(C)O (some centres unmarked) [Example 21] (X2-[Thr(3ξ)][Dab][Dab][Dab][dCha]L[Dab][Dab]T; lactam 3-C)
8
